Biological target: EP2 (Homo sapiens)
Sequence (P43116 whole entry): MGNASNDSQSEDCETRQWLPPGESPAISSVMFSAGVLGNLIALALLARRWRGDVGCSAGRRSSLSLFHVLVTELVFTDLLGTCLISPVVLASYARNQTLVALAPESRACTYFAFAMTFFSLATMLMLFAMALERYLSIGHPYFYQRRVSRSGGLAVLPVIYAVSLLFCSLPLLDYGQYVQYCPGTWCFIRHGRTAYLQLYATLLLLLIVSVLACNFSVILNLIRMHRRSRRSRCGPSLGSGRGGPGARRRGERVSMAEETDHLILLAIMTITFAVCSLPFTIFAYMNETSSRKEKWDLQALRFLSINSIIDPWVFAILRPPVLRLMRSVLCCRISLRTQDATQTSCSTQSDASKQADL
Assay: EP2 binding study
Experimental: Data from running binding and activity studies on the compounds of the invention were carried out as described in U.S. Pat. No. 7,427,685, the contents of which are incorporated herein by reference.
Measured Endpoint: EC50 (nM)

Some solved entries appear below for comparison.
INSERT INTO assay_data (compound, recorded_result) VALUES
  ('C[C@@H](O)CCCC[C@@H](O)/C=C/[C@@H]1[C@@H](CCCc2ccc(C(=O)O)s2)[C@H](Cl)C[C@H]1O', 365),
  ('CCCC(O)CC(O)/C=C/[C@@H]1[C@@H](CCCc2ccc(C(=O)O)s2)[C@H](Cl)C[C@H]1O (some centres unmarked)', 716),
  ('CCCCC(O)[C@H](O)/C=C/[C@@H]1[C@@H](CCCc2ccc(C(=O)O)s2)[C@H](Cl)C[C@H]1O (some centres unmarked)', 148);

a: C[C@@H](O)CCCC[C@H](O)/C=C/[C@@H]1[C@@H](CCCc2ccc(C(=O)O)s2)[C@H](Cl)C[C@H]1O
b: O=C(O)c1ccc(CCC[C@@H]2[C@@H](/C=C/[C@@H](O)CCCCCO)[C@H](O)C[C@H]2Cl)s1
Q: Which shows the larger EC50 value: a or b ? Reply with the label of the item you choose.
A: a

* * *

Target: EP3 (Homo sapiens, UniProt P43115)
Sequence (P43115 whole entry): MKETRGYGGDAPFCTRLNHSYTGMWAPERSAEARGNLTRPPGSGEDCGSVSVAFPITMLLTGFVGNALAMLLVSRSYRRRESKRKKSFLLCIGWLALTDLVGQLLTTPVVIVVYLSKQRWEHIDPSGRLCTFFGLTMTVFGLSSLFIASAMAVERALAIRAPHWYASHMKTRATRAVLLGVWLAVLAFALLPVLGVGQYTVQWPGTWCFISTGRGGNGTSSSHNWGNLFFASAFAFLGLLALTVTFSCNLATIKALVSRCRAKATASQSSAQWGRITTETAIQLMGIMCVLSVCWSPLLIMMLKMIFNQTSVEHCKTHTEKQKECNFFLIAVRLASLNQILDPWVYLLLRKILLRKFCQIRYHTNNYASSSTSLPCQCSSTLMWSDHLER
Test: EP3 activity study
Measured Endpoint: EC50 (nM)

a: C[C@@H](O)CCCC[C@@H](O)/C=C/[C@@H]1[C@@H](CCCc2ccc(C(=O)O)s2)[C@H](Cl)C[C@H]1O
b: CCCC(O)CC(O)/C=C/[C@@H]1[C@@H](CCCc2ccc(C(=O)O)s2)[C@H](Cl)C[C@H]1O (stereo partly shown)
c: O=C(O)c1ccc(CCC[C@@H]2[C@@H](/C=C/[C@@H](O)CCCCCO)[C@H](O)C[C@H]2Cl)s1
d: C[C@@H](O)CCCC[C@H](O)/C=C/[C@@H]1[C@@H](CCCc2ccc(C(=O)O)s2)[C@H](Cl)C[C@H]1O
Q: Ordering criterion: EC50; begin with the maximum. Lab note: final answer is the ordered label list.
A: a, b, d, c
(a: 7140 nM, b: 690 nM, d: 222 nM, c: 129 nM)

* * *

Molecular target: EP4 (Homo sapiens)
Assay: EP4 binding study
Measured Endpoint: EC50 (µM)

1: CCCCC(O)[C@H](O)/C=C/[C@@H]1[C@@H](CCCc2ccc(C(=O)O)s2)[C@H](Cl)C[C@H]1O (some centres unmarked)
2: O=C(O)c1ccc(CCC[C@@H]2[C@@H](/C=C/[C@@H](O)CCCCCO)[C@H](O)C[C@H]2Cl)s1
3: C[C@@H](O)CCCC[C@@H](O)/C=C/[C@@H]1[C@@H](CCCc2ccc(C(=O)O)s2)[C@H](Cl)C[C@H]1O
Q: Ordering criterion: EC50; begin with the maximum. Lab note: final answer is the ordered label list.
A: 3, 2, 1
(3: 3.41 µM, 2: 1.13 µM, 1: 0.49 µM)

* * *

Biological target: UniProt P34995
Sequence (P34995 1-402): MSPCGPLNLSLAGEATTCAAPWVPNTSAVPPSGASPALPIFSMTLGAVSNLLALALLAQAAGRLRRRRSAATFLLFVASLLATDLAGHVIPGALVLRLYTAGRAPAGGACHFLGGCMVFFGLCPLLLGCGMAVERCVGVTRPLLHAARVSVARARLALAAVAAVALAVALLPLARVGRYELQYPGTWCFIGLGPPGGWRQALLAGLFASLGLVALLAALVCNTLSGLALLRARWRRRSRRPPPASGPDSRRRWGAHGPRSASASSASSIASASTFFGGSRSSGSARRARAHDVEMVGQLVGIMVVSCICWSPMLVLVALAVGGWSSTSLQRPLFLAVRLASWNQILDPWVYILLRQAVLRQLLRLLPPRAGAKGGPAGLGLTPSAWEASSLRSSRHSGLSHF
Assay: EP1 activity study
pEC50: −log10 of the molar value.
Measured Endpoint: pEC50

P: O=C(O)c1ccc(CCC[C@@H]2[C@@H](/C=C/[C@@H](O)CCCCCO)[C@H](O)C[C@H]2Cl)s1
Q: C[C@@H](O)CCCC[C@H](O)/C=C/[C@@H]1[C@@H](CCCc2ccc(C(=O)O)s2)[C@H](Cl)C[C@H]1O
R: CCCC(O)CC(O)/C=C/[C@@H]1[C@@H](CCCc2ccc(C(=O)O)s2)[C@H](Cl)C[C@H]1O (stereo partly shown)
S: C[C@@H](O)CCCC[C@@H](O)/C=C/[C@@H]1[C@@H](CCCc2ccc(C(=O)O)s2)[C@H](Cl)C[C@H]1O
Q: Which order do these items take when sorted by rising pEC50? List them. Lab note: final answer is the ordered label list.
A: S, R, Q, P
(S: 5.37, R: 5.91, Q: 6.68, P: 7.00)

* * *

Target: DP (Homo sapiens)
Sequence (Q13258 whole entry): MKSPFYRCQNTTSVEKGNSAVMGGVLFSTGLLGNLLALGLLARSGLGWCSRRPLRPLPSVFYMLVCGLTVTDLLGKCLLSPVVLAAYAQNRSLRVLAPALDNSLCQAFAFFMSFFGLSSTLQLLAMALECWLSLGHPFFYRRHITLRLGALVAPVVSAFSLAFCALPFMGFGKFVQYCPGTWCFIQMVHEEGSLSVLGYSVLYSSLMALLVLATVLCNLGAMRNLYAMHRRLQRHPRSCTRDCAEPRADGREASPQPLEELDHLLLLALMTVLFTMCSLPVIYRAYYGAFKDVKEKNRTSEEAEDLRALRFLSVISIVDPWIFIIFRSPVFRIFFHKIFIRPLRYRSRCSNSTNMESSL
Test: DP activity study
Format: cell-based
Measured Endpoint: EC50 (µM)

Some solved entries appear below for comparison.
INSERT INTO results (molecule, measured_endpoint, measure_unit, recorded_result) VALUES
  ('CCCC(O)CC(O)/C=C/[C@@H]1[C@@H](CCCc2ccc(C(=O)O)s2)[C@H](Cl)C[C@H]1O (some centres unmarked)', 'EC50', 'µM', 2.26),
  ('O=C(O)c1ccc(CCC[C@@H]2[C@@H](/C=C/[C@@H](O)CCCCCO)[C@H](O)C[C@H]2Cl)s1', 'EC50', 'µM', 3.35);

a: CCCCC(O)[C@H](O)/C=C/[C@@H]1[C@@H](CCCc2ccc(C(=O)O)s2)[C@H](Cl)C[C@H]1O (some centres unmarked)
b: C[C@@H](O)CCC[C@H](O)/C=C/[C@@H]1[C@@H](CCCc2ccc(C(=O)O)s2)[C@H](Cl)C[C@H]1O
c: C[C@@H](O)CCCC[C@H](O)/C=C/[C@@H]1[C@@H](CCCc2ccc(C(=O)O)s2)[C@H](Cl)C[C@H]1O
Q: Put the entries in order of EC50, starting with the largest number. Lab note: final answer is the ordered label list.
A: b, c, a
(b: 6.79 µM, c: 4.52 µM, a: 0.886 µM)

* * *

Target: EP4 (Homo sapiens, UniProt P35408)
Sequence (P35408 whole entry): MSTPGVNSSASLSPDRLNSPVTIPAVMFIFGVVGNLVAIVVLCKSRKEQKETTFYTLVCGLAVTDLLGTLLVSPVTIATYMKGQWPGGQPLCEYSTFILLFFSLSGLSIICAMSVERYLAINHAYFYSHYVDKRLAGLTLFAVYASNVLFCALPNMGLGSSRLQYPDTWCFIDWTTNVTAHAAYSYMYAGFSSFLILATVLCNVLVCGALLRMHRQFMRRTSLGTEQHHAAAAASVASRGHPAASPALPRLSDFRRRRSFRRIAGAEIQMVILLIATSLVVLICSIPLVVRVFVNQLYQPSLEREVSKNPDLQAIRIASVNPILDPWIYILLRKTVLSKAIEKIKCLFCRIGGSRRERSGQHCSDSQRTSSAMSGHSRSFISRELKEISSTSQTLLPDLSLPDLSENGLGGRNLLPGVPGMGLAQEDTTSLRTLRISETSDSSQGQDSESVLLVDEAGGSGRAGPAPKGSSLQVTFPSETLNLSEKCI
Test: EP4 Ca2+ signal activity study
Format: cell-based
Measured Endpoint: EC50 (nM)

I: CCCC(O)CC(O)/C=C/[C@@H]1[C@@H](CCCc2ccc(C(=O)O)s2)[C@H](Cl)C[C@H]1O (some centres unmarked)
II: CCCCC(O)[C@H](O)/C=C/[C@@H]1[C@@H](CCCc2ccc(C(=O)O)s2)[C@H](Cl)C[C@H]1O (some centres unmarked)
III: O=C(O)c1ccc(CCC[C@@H]2[C@@H](/C=C/[C@@H](O)CCCCCO)[C@H](O)C[C@H]2Cl)s1
IV: C[C@@H](O)CCCC[C@H](O)/C=C/[C@@H]1[C@@H](CCCc2ccc(C(=O)O)s2)[C@H](Cl)C[C@H]1O
Q: Ordering criterion: EC50; begin with the maximum. Lab note: final answer is the ordered label list.
A: IV, III, II, I
(IV: 455 nM, III: 68 nM, II: 45 nM, I: 23 nM)

* * *

Target: UniProt:P43116
Assay: EP2 Ca2+ signal activity study
Assay type: cell-based
Measured Endpoint: EC50 (nM)

INSERT INTO assay_data (compound, recorded_result) VALUES
  ('CCCC(O)CC(O)/C=C/[C@@H]1[C@@H](CCCc2ccc(C(=O)O)s2)[C@H](Cl)C[C@H]1O (some centres unmarked)', 27);

a: C[C@@H](O)CCCC[C@H](O)/C=C/[C@@H]1[C@@H](CCCc2ccc(C(=O)O)s2)[C@H](Cl)C[C@H]1O
b: CCCCC(O)[C@H](O)/C=C/[C@@H]1[C@@H](CCCc2ccc(C(=O)O)s2)[C@H](Cl)C[C@H]1O (some centres unmarked)
c: C[C@@H](O)CCCC[C@@H](O)/C=C/[C@@H]1[C@@H](CCCc2ccc(C(=O)O)s2)[C@H](Cl)C[C@H]1O
d: O=C(O)c1ccc(CCC[C@@H]2[C@@H](/C=C/[C@@H](O)CCCCCO)[C@H](O)C[C@H]2Cl)s1
Q: Ascending sort, EC50. Lab note: final answer is the ordered label list.
A: d, b, a, c

* * *

Biological target: EP2 (Homo sapiens)
Experiment: EP2 cAMP activity study
Type: cell-based
Measured Endpoint: EC50 (nM)

INSERT INTO assay_data (compound, measure_unit, recorded_result) VALUES
  ('CCCCC(O)[C@H](O)/C=C/[C@@H]1[C@@H](CCCc2ccc(C(=O)O)s2)[C@H](Cl)C[C@H]1O (some centres unmarked)', 'nM', 2.3);

a: CCCC(O)CC(O)/C=C/[C@@H]1[C@@H](CCCc2ccc(C(=O)O)s2)[C@H](Cl)C[C@H]1O (some centres unmarked)
b: C[C@@H](O)CCCC[C@@H](O)/C=C/[C@@H]1[C@@H](CCCc2ccc(C(=O)O)s2)[C@H](Cl)C[C@H]1O
c: O=C(O)c1ccc(CCC[C@@H]2[C@@H](/C=C/[C@@H](O)CCCCCO)[C@H](O)C[C@H]2Cl)s1
d: C[C@@H](O)CCCC[C@H](O)/C=C/[C@@H]1[C@@H](CCCc2ccc(C(=O)O)s2)[C@H](Cl)C[C@H]1O
Q: Ascending sort, EC50. Lab note: final answer is the ordered label list.
A: c, d, a, b
